target: DN-III quality control recombinant protein (produced by Fapon Biotech InC.) (dengue virus); test: BLI, AMC sensor, antibody captured
We begin with a simple list: items and their reported pKd.
Lab note: report pKd as minus log10 of the concentration in molar units, number only.

Mutation 1-21 (antibody, V domains shown) VH: EVQLQQSGTELVRPGALVKLSCKASGFNIKDYYVHWVKQRPRQGLEWIGWIDPENGKTIYDPKFQDKASITSDTSTNTAYLQLRSLTSEDTAVYYCVSAYFRFVYWGQGTLVTVSA VL: QIVLTQSPAIMSAFPGERVTMTCSASSSVRYMYWHQQKPGSSPRLLIYDTSNLASGVPVRFSGSGSGTSYSLTISRDEAMDAATYYCQQWSSFPRTFGGGTKLEIKR | 9.18

Field pKd (entry Mutation 1-9 (antibody, V domains shown) VH: EVQLQQSGTELVRPGALVKLSCKASGFNIKDYYVHWVKQRPRQGLEWIGWIDPENGKTLYDPKFQDKASITSDTSTNTAYLQLRSLTSEDTAVYYCVSAYVRFVYWGQGTLVTVSA VL: QIVLTQSPAIMSAFPGERVTMTCSASSSVRYMYWHQQKPGSSPRLLIYDTSNIASGVPVRFSGSGSGTSYSLTISRDEAMDAATYYCQQWSSTPRTFGGGTKLEIKR ) reads 9.35
